// reported binding ratio vs parent P54AR4-83v2 per item
Test system: EGFR (form in the assay not stated) (human, UniProt P00533 25-645, limits assumed)
Run description: ELISA, NEM conjugate 100 nM
Form entry: value (ratio) — number only.

For orientation, consider the following solved cases.
{"Binder": "P54AR4-83v2 T68C, NEM conjugate (designed binder, NEM on Cys 68, His-tagged) LPAPKNLVVSEVTEDSARLSWDDPWAFYESFLIQYQESEKVGEAIVLTVPGSERSYDLTGLKPGTEYCVSIYGVHNVYKDTNMRGLPLSAIFTT", "binding ratio vs parent P54AR4-83v2 / ratio": 1.04}
{"Binder": "P54AR4-83v2 S55C, NEM conjugate (designed binder, NEM on Cys 55, His-tagged) LPAPKNLVVSEVTEDSARLSWDDPWAFYESFLIQYQESEKVGEAIVLTVPGSERCYDLTGLKPGTEYTVSIYGVHNVYKDTNMRGLPLSAIFTT", "binding ratio vs parent P54AR4-83v2 / ratio": 0}

Then there is this binder:
May I ask what binding ratio vs parent P54AR4-83v2 has been recorded for P54AR4-83v2 L88C, NEM conjugate (designed binder, NEM on Cys 88, His-tagged) LPAPKNLVVSEVTEDSARLSWDDPWAFYESFLIQYQESEKVGEAIVLTVPGSERSYDLTGLKPGTEYTVSIYGVHNVYKDTNMRGLPCSAIFTT ? 1.03
